SOS1 (Homo sapiens, UniProt Q07889): reported IC50 for various compounds.
Sequence (Q07889 whole entry): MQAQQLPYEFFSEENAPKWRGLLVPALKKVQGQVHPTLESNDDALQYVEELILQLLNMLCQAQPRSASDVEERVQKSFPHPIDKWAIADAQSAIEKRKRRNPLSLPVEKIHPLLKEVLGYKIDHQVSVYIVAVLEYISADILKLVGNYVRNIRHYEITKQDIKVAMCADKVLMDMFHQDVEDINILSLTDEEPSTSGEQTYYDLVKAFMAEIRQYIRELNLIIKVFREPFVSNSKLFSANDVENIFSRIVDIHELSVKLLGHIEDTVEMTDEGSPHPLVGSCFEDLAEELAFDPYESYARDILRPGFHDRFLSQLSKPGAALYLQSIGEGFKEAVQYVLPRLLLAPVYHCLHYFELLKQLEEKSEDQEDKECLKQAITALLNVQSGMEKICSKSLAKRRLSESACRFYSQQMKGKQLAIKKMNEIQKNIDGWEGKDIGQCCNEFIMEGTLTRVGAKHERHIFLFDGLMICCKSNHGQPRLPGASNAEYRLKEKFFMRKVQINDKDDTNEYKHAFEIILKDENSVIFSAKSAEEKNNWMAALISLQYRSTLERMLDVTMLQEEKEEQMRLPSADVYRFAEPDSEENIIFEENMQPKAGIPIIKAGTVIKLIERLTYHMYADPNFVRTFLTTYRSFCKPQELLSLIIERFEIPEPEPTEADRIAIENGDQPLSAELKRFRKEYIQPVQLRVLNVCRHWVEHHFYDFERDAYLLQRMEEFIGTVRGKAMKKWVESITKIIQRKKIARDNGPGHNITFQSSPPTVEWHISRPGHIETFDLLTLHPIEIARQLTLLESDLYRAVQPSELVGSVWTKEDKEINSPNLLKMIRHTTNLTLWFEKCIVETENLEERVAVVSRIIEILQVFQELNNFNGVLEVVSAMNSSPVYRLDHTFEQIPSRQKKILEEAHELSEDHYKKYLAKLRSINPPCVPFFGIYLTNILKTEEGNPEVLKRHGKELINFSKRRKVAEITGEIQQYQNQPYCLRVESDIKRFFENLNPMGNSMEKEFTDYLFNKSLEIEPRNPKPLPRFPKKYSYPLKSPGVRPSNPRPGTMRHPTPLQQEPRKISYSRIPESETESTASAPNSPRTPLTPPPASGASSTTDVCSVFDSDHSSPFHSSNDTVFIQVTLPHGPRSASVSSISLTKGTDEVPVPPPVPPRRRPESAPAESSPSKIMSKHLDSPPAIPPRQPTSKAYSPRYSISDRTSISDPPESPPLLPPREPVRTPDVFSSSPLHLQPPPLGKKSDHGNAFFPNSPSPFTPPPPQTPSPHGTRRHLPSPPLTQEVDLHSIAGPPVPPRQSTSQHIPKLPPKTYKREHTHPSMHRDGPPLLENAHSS
Form field: result (number plus unit)

Q) # input compound: `C[C@@H](Nc1nnc(N)c2cc(=O)n(C3CC3)cc12)c1cccc(C(F)F)c1F` ; wanted: its IC50
A) 4.8 nM

Q) Item `C[C@@H](Nc1nnc(N2CCN(C)CC2)c2cc(=O)n(C3CC(F)(F)C3)cc12)c1cccc(C(F)F)c1F` has what recorded IC50?
A) 4.2 nM

Q) Fill blank: measured IC50 of the compound `Cc1c(C#N)cccc1[C@@H](C)Nc1nnc(N(C)C)c2cc(=O)n(C3(C)CC3)cc12` is ____.
A) 18.7 nM

Q) What does the data say about its IC50? Entry: `Cc1c(C#N)cccc1[C@@H](C)Nc1nnc(N2CCC(F)(F)C2)c2cc(=O)n(C3(C)CC3)cc12`
A) 34.2 nM

Q) Could you tell me which IC50 is on file for `CC(C)N1CCN(c2nnc(N[C@H](C)c3cccc(C(F)(F)F)c3F)c3cn(C4(C)CC4)c(=O)cc23)CC1` ?
A) 4.7 nM

Q) Requested read-out: IC50. Entry: Cc1c(C#N)cccc1[C@@H](C)Nc1nnc(N2CC[C@H](CO)C2)c2cc(=O)n(N3CC4CCCC4C3)cc12 (stereo partly shown)
A) 9.7 nM

Q) Look up IC50 for this compound: `CC(C)N1CCN(c2nnc(N[C@H](C)c3cccc(C(F)F)c3F)c3cn(C4CCC4)c(=O)cc23)CC1`
A) 4.5 nM

Attribution: patent EP4722213A1
